target: Chromo domain-containing protein 1 (Saccharomyces cerevisiae (strain ATCC 204508 / S288c) (Baker's yeast)) (UniProt P32657); experiment: ScCHD-1 Enzyme Inhibition Assay; assay type: functional; parameters: scale not given: in the data most compounds retested in dose-response had high values; details: 30 µM
Sequence (P32657 whole entry, the tested form may be a part): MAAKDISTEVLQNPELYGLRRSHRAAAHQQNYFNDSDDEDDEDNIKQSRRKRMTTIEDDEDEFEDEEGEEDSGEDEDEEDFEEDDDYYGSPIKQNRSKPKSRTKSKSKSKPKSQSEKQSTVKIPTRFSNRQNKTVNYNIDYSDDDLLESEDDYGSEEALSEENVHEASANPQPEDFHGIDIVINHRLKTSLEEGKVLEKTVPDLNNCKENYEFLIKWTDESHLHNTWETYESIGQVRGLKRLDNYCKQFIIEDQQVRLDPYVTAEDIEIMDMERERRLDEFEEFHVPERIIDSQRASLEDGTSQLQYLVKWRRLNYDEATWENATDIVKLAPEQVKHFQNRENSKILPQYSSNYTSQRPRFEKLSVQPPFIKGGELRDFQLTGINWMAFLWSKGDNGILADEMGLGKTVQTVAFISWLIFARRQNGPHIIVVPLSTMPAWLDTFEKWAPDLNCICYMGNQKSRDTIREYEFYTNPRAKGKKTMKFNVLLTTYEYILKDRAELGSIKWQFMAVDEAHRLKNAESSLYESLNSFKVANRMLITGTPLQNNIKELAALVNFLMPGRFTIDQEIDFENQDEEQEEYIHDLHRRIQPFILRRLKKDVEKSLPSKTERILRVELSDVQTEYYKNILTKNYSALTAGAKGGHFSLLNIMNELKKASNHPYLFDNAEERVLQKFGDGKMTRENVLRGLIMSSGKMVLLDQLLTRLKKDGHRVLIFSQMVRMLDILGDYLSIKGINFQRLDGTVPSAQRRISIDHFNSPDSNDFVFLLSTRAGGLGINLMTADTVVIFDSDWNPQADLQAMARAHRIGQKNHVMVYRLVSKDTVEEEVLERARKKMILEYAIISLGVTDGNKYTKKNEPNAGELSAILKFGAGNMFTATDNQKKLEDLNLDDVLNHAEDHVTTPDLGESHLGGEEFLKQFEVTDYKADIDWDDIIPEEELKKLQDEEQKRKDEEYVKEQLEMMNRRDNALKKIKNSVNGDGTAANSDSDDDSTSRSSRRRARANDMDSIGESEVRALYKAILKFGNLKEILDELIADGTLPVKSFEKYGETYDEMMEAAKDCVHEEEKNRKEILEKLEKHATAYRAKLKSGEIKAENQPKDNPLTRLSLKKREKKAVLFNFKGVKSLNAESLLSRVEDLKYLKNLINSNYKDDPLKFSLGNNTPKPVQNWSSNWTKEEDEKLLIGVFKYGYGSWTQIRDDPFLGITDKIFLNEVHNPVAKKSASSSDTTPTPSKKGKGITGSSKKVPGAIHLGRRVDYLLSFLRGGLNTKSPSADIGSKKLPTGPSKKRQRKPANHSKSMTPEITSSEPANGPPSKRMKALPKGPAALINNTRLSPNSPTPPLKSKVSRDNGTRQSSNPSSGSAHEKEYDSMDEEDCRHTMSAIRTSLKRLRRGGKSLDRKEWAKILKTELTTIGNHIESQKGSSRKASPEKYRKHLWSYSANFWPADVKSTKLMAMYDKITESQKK
The following compounds are shown together with reported Percent Effect values.

# compound, Percent Effect
rows = [
    ("CC(C)Cc1noc(CN2CCCC(Cn3cncn3)C2)n1 (centres undefined)", "-7.85%"),
    ("Cc1cnn(CCC(=O)N2CCOC(c3nc(C(C)(C)C)n[nH]3)C2)c1 (centres undefined)", "-1.3%"),
    ("COCc1nc(C(=O)N2CCCC2c2noc(C(C)C)n2)cs1 (centres undefined)", "11.7%"),
    ("CCc1cnc2c(c1Nc1ccncc1)c(=O)n(C)c(=O)n2C", "-10.9%"),
]

----------
tested on: Trypanosoma cruzi; assay: Trypanosoma cruzi phosphomannomutase and mannose-1-phosphate guanylyltransferase assay; format: functional; set-up: scale not given: direction of the effect not stated beside the values; details: 10 µM
The following compounds are shown together with reported Percent Effect values.
endpoint: Percent Effect (%)

# compound, target, endpoint, recorded number
data = [
    ("COc1ccccc1CCNC(=O)CN1CCCC1c1noc(C)n1 (stereo not drawn)", "Trypanosoma cruzi", "Percent Effect", -1.69),
    ("COc1ccccc1[C@@H]1CN(Cc2cc(C(C)(C)C)[nH]n2)C[C@H]1C(=O)O", "Trypanosoma cruzi", "Percent Effect", 4.18),
    ("Cc1ccc(CN(Cc2c[nH]cn2)C2CC(C)(C)NC(C)(C)C2)o1", "Trypanosoma cruzi", "Percent Effect", -9.49),
]

----------
Target: Tyrosyl-tRNA synthetase, putative (Trypanosoma cruzi (strain CL Brener))
Sequence (whole entry): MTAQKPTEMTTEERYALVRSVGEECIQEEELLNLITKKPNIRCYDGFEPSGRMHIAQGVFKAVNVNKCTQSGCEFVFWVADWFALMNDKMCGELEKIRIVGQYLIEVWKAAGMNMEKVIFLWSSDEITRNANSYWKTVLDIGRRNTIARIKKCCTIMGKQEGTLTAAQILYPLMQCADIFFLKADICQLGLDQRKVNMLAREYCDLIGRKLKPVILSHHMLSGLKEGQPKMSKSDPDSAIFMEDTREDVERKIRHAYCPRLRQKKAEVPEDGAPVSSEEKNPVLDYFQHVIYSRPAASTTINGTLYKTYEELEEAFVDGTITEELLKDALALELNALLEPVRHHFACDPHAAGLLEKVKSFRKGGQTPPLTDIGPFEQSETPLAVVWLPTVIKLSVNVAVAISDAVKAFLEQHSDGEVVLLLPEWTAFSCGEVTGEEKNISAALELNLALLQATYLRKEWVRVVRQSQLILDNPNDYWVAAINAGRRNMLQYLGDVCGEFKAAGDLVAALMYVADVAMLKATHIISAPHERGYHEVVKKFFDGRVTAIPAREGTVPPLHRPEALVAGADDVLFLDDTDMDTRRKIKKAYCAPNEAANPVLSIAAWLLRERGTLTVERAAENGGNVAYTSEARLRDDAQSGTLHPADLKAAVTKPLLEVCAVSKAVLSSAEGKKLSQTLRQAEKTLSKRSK
Experiment: Trypanosoma cruzi tyrosyl tRNA synthetase (TcYRS) _High Tyrosine SOP; note: in the data most compounds retested in dose-response had high values
Format: functional
Set-up: scale not given: direction of the effect not stated beside the values
Settings: 30 µM
The following compounds are shown together with reported Percent Effect values.

# compound, Percent Effect
data = [
    ("Cc1ncc(CNCC2CCCN2c2cccnn2)s1 (centres undefined)", "9.38%"),
    ("O=C(c1cc(Cl)c2c(c1)OCO2)N1CCN(c2nccs2)CC1", "7.53%"),
    ("COc1ccc(C(=O)NS(=O)(=O)c2cncc(Br)c2)cc1OC", "2.65%"),
    ("COCC(=O)N(C)Cc1cccc(Cl)c1", "1.06%"),
    ("COc1ccccc1OCCN1CCCC(c2noc(C3CC3)n2)C1 (centres undefined)", "2.73%"),
    ("CCc1nc(CN2CCCN(C(=O)C(C)COC)CC2)cs1 (centres undefined)", "9.71%"),
    ("CC1CCCCN1c1nc2c(c(=O)[nH]1)CCN(Cc1cccnc1)C2 (centres undefined)", "3.23%"),
    ("Fc1ccc(-c2nnc(CN3CCCC3Cn3cncn3)o2)cc1 (centres undefined)", "4.85%"),
    ("CCCn1c(C)c(CC(=O)N(C)CCOC)c2c1CC(C)(C)CC2=O", "6.45%"),
    ("CCN(CC)C(C(=O)NCc1ccc(N2CCCC2)nc1)C(C)C (centres undefined)", "2.46%"),
    ("CCOc1nnc(CN(C)C2CCCN(c3cccnn3)C2)s1 (centres undefined)", "7.45%"),
    ("O=C(NCCO)Nc1cccc(Cl)c1SC(F)F", "-5.26%"),
    ("CC1CN(C)c2ccccc2CN1C(=O)c1ccncc1 (centres undefined)", "2.15%"),
    ("Cc1ccccc1CCNC(=O)C1CC(=O)N(CC(F)(F)F)C1 (centres undefined)", "5.42%"),
    ("CCC(C)(C)NC(=O)Cn1nc(C)nc1-c1cccc(C)c1", "9.71%"),
    ("CN(C)C(C(=O)N1CCC(N2CCSCC2)CC1)c1ccccc1F (centres undefined)", "10.5%"),
    ("Cc1cc(CN2CC[C@H]3C(=O)N(c4ccccc4)CCO[C@H]3C2)no1", "2.13%"),
    ("CCN(C)c1ccc(C(=O)N(CCOC)Cc2ccccn2)cc1", "6.01%"),
    ("CN(C)C(=O)CC1CC2(CCNCC2)c2cc(F)ccc21 (centres undefined)", "-2.16%"),
    ("Cn1cc(CN2CCc3nc(-c4ccccn4)nc(O)c3C2)cn1", "10.6%"),
    ("Cc1nn(C)c(N2CCOCC2)c1CNC(C)c1ccco1 (centres undefined)", "3.16%"),
    ("COc1cccc(C2CC(=O)Nc3nc(N4CCOCC4)sc32)c1OC (centres undefined)", "5.32%"),
    ("c1ccc(CCN2CCOC(Cn3cccn3)C2)nc1 (centres undefined)", "3.81%"),
    ("NC(=O)CN1CC2(CCC1=O)CCN(Cc1cc(F)ccc1Cl)CC2", "3.83%"),
    ("Cc1nc(CC(=O)N2CCCN(c3ccc(C#N)cc3)CC2)cs1", "2.13%"),
    ("CC(C)(O)CN1CCN(C(=O)c2cc3ccccc3c(=O)[nH]2)CC1", "7.45%"),
    ("Cc1cccc(CN2C(=O)CC[C@@H]3[C@H]2CCN3CC2CCOCC2)n1", "5.32%"),
    ("c1cc(CNCc2ccc3c(c2)CCO3)cc(N2CCOCC2)n1", "2.15%"),
    ("Cn1c(Cn2ccnc2)nnc1C1CCCN(C2CCCCC2)C1 (centres undefined)", "5.82%"),
    ("O=C(Cn1c(=O)n(Cc2ccco2)c2ncccc21)Nc1ccccn1", "5.38%"),
    ("Cc1cc(CN2CCN(C(C)c3nc(C4CC4)no3)CC2)no1 (centres undefined)", "-1.04%"),
    ("CC(NC(=O)c1nc(=O)[nH][nH]1)c1ccc(OCC2CC2)c(F)c1 (centres undefined)", "5.32%"),
    ("CCOCCCC(=O)NCCC(=O)N1CCN(c2ccccn2)CC1", "5.32%"),
    ("Cn1ncc2c1CCCC2NCc1ccc(Cl)s1 (centres undefined)", "6.67%"),
    ("CCC(CC)NC(=O)Cn1nc(C)nc1-c1ccccc1", "6.4%"),
    ("CC[C@@H](CO)NC(=O)c1coc(COc2ccc(OC)cc2)n1", "6.45%"),
    ("Cc1cnn(CC2CCCCN2CCC(=O)Nc2cc(C)on2)c1 (centres undefined)", "1.04%"),
    ("COc1cc(N2C[C@@H]3COC[C@]3(COCc3cccc(C)n3)C2)ncn1", "1.08%"),
    ("Cc1ccc(=O)n(CC2(O)CCN(Cc3cc(C)c(O)c(C)c3)CC2)n1", "2.15%"),
]

----------
The following molecules are shown together with reported Percent Effect values.
biological target: Sialic acid-binding Ig-like lectin 9 (Homo sapiens) (UniProt Q9Y336); assay: Hs-Siglec9 ALPHAscreen SOP 20170721; design: scale not given: direction of the effect not stated beside the values; conditions: 10 µM
Sequence (Q9Y336 whole entry): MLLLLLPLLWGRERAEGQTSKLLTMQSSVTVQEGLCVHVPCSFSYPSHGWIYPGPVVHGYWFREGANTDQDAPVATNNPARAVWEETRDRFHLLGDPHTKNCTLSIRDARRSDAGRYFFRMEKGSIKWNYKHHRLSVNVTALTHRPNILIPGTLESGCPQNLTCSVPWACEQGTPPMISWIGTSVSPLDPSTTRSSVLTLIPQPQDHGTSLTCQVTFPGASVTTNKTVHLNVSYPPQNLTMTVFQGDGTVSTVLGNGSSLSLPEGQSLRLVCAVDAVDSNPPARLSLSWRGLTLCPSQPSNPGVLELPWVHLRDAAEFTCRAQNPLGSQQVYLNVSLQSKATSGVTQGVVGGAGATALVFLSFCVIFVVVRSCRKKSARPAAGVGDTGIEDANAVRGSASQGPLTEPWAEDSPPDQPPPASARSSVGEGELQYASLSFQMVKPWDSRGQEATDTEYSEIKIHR

# molecule, target, Percent Effect / %
data = [
    ("CCN(Cc1ccc2c(c1)OCCO2)C(=O)NCc1cc[nH]n1", "Sialic acid-binding Ig-like lectin 9 (Homo sapiens) (UniProt Q9Y336)", 2.08),
    ("CCCSCC(=O)Nc1ncn(CC(=O)NCc2ccccc2)n1", "Sialic acid-binding Ig-like lectin 9 (Homo sapiens) (UniProt Q9Y336)", 7.45),
    ("CN(C)C(=O)N1C[C@H]2CN(Cc3cccc(F)c3)C(=O)[C@H]2C1", "Sialic acid-binding Ig-like lectin 9 (Homo sapiens) (UniProt Q9Y336)", -7.24),
    ("CCC(CC)NC(=O)Cn1nc(C)nc1-c1ccccc1", "Sialic acid-binding Ig-like lectin 9 (Homo sapiens) (UniProt Q9Y336)", 3.26),
    ("CNc1cncc(C2CCCN(S(C)(=O)=O)C2)n1 (configuration not stated)", "Sialic acid-binding Ig-like lectin 9 (Homo sapiens) (UniProt Q9Y336)", 2.54),
    ("COc1ccc(C(C)=O)c(OCC(=O)NC(C)c2ccc(F)cc2)c1 (configuration not stated)", "Sialic acid-binding Ig-like lectin 9 (Homo sapiens) (UniProt Q9Y336)", 8.21),
    ("O=S(=O)(C1CC1)N1CC[C@]2(C[C@@H](Oc3ccccn3)CO2)C1", "Sialic acid-binding Ig-like lectin 9 (Homo sapiens) (UniProt Q9Y336)", 5.55),
    ("CC(=O)N1CCN(c2cc(-c3ccccc3)nc3c(C)c(C)nn23)CC1", "Sialic acid-binding Ig-like lectin 9 (Homo sapiens) (UniProt Q9Y336)", 6.66),
    ("c1cnc(N2CCCC(NCc3cccc4c3OCCO4)C2)nc1 (configuration not stated)", "Sialic acid-binding Ig-like lectin 9 (Homo sapiens) (UniProt Q9Y336)", -1.18),
    ("Cc1nn(C)c(Cl)c1C1CCCN1C(=O)c1ccc2nncn2c1 (configuration not stated)", "Sialic acid-binding Ig-like lectin 9 (Homo sapiens) (UniProt Q9Y336)", -4.7),
    ("Cc1cc(O)c(OCC(=O)/N=c2\\[nH]cc(C)s2)cn1", "Sialic acid-binding Ig-like lectin 9 (Homo sapiens) (UniProt Q9Y336)", 0.981),
    ("CN(CCc1cccs1)C1CCCN(Cc2noc(C3CC3)n2)C1 (configuration not stated)", "Sialic acid-binding Ig-like lectin 9 (Homo sapiens) (UniProt Q9Y336)", -5.62),
]
